# system-under-test: Cysteine protease ATG4B (Homo sapiens, UniProt Q9Y4P1)
# Sequence (Q9Y4P1 whole entry): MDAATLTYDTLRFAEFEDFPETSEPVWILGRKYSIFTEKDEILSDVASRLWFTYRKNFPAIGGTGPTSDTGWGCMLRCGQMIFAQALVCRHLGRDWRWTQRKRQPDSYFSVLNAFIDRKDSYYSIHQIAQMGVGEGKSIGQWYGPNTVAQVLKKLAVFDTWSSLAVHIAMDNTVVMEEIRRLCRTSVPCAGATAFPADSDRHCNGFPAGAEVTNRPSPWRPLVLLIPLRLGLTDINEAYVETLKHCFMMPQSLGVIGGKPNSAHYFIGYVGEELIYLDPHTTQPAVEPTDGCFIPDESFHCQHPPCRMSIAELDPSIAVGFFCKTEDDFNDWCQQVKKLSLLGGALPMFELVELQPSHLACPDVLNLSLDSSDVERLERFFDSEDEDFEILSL
# experimental-details: Inhibition of Atg4B (unknown origin) using YFP-LC3B-EmGFP as substrate after 40 mins by FRET-based assay
For each record, write down the corresponding IC50.
Give just the number in nM; leave the unit off.

Q) # get_value(readout= IC50, system= Cysteine protease ATG4B (Homo sapiens, UniProt Q9Y4P1)) for O=C(O)C1=CC(=C(c2ccc(O)c(C(=O)O)c2)c2ccc(O)c(C(=O)O)c2)C=CC1=O
A) 1300

Q) // map Cc1cc(O)c2c(=O)c3c(O)cc(O)c4c5c(O)cc(O)c6c(=O)c7c(O)cc(C)c8c1c2c(c34)c(c78)c65 to recorded IC50 (system: Cysteine protease ATG4B (Homo sapiens, UniProt Q9Y4P1))
A) 57000

Q) Form entry - test system: Cysteine protease ATG4B (Homo sapiens, UniProt Q9Y4P1); read-out: IC50; compound: O=C(N[C@@H](Cc1ccccc1)C(=O)CCl)OCc1ccccc1
A) 630

----------
# system-under-test: Cysteine protease ATG4B (Homo sapiens, UniProt Q9Y4P1)
# experimental-details: Inhibition of wild type recombinant Atg4B (unknown origin) expressed in Escherichia coli BL21 DE3 using N-terminal His6-tagged LC3B-PLA2 as substrate after 60 mins by NBD-C6-HPC dye-based fluorescence assay
readout: IC50 (µM)
Provide only the numeric value, understood in µM.

Q) Consider the molecule O=C(O)c1cc(O)c(=O)c2c(O)c(O)ccc2c1 [7-DESHYDROXYPYROGALLIN-4-CARBOXYLIC ACID] and give its measured IC50.
A) 2.3

Q) Record request: IC50 value, item O=c1oc2c(O)c(O)cc3c(=O)oc4c(O)c(O)cc1c4c23
A) 5.5
